Source: ChEMBL document CHEMBL3603774

# System: Staphylococcus aureus
# assayExplanation: Antibacterial activity against Staphylococcus aureus MTCC 96 at 50 ug/ml after 24 hrs by disc diffusion method
# Format: functional
# settings: MTCC 96, 24 h, read-out: IZ
readoutName: zone of inhibition at 50 µg/mL (mm)
Give bare numbers, in mm.

The examples below pair each entry with its known result.
structurenotation=CCOC(=O)c1c(-c2ccccc2)nn(-c2ccccc2)c1Cn1c(S)nc2ccccc21 resultvalue=8
structurenotation=CCOC(=O)c1c(-c2ccccc2)nn(-c2ccccc2)c1Cn1cnc2ccccc21 resultvalue=6
structurenotation=CCOC(=O)c1c(-c2ccccc2)nn(-c2ccccc2)c1COCc1ccccc1 resultvalue=2

# input for lookup
Quote Staphylococcus aureus zone of inhibition at 50 µg/mL for entry "CCOC(=O)c1c(-c2ccccc2)nn(-c2ccccc2)c1Cn1c(S)nc2ccc(OC(F)F)cc21" . 12
